# STUDY TARGET: T1, rhesus serum albumin (rhesus, UniProt Q28522 17-600)
# T1 construct: also called RhSA
# ASSAY EXPLANATION: SPR, single cycle kinetics, pH 7.4
pKd: −log10 of the molar value.
Reported values of pKd for individual entries
MEASURED QUANTITY: pKd

1. R28-H2 (VHH) VHH: EVQLVESGGGLVQPGGSLRLSCAASGRTFIAYAMGWFRQAPGKEREFVSAITNFAGGTTYYADSVKGRFTISRDNSKNTLYLQMNSLRAEDTAVYYCAADRSAQTMRQVRPVLPYWGQGTLVTVSS: 5.58
2. M75-H2 (VHH) VHH: EVQLVESGGGLVQPGGSLRLSCAASGRTFDNYVMAWFRQAPGKEREFVSSISGSGSITNYANSVKDRFTISRDNSKNTLYLQMNSLRAEDTAVYYCAAGSRRTYYREPKFYPSWGQGTLVTVSS: 7.20
3. M79-H3 (VHH) VHH: EVQLVESGGGLVQPGGSLRLSCAASGSTFSSSSVGWYRQAPGKQRELVSAITSGGSTNTADSVKGRFTISRDNSKNTLYLQMNSLRAEDTAVYYCNVAGRNWVPISRYSPGPYWGQGTLVTVSS: 7.44
4. Rh46-H4 (VHH) VHH: QVQLVESGGGLVQPGGSLRLSCAASTRTFSSYIMGWFRQAPGKERELVAAISWSGRMTHYADSVKGRFTISRDNSKNTLYLQMNSLRAEDTAIYSCAADRTTAWGAPRSQYDSWGQGTLVTVSS: 6.39
